- MEASURED ON: human melanin concentrating hormone type 2 receptor (MCH-2R) (human, UniProt Q969V1 1-340)
- Sequence (Q969V1 whole entry, form in doubt): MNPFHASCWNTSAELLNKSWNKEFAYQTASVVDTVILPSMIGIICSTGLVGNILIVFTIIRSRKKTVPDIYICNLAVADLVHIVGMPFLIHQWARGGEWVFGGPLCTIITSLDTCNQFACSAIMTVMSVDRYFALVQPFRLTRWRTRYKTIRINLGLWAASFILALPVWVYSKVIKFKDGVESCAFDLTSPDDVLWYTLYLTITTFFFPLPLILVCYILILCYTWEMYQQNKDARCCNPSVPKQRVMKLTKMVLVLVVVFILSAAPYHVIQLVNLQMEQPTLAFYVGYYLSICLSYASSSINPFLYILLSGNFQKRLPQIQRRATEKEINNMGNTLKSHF
- PROCEDURE SUMMARY: cell-based or functional assay
Bridges are numbered along the chain shown (N, C = ends). [ ]: non-standard residue; d: D form. Nle = CCCC[C@H](N)C(=O)O
OBSERVED PROPERTY: EC50 (aequorin functional assay) (nM)

Solved cases below.
BINDER: RCMLXRVYRPC (Sar^10 (sarcosine)) [SEQ. ID. NO. 6]
RESULT VALUE: 40

BINDER: Ac-RCML[dA]RVYRPC-NH2 (disulfide 2-11; SMILES CSCC[C@@H]1NC(=O)[C@@H](NC(=O)[C@H](CCCNC(=N)N)NC(C)=O)CSSC[C@@H](C(N)=O)NC(=O)[C@@H]2CCCN2C(=O)[C@H](CCCNC(=N)N)NC(=O)[C@H](Cc2ccc(O)cc2)NC(=O)[C@H](C(C)C)NC(=O)[C@H](CCCNC(=N)N)NC(=O)[C@@H](C)NC(=O)[C@H](CC(C)C)NC1=O, also called D-Ala^10) [SEQ. ID. NO. 13]
RESULT VALUE: 16

BINDER: Ac-RCMLGRVFRPC-NH2 (disulfide 2-11; SMILES CSCC[C@@H]1NC(=O)[C@@H](NC(=O)[C@H](CCCNC(=N)N)NC(C)=O)CSSC[C@@H](C(N)=O)NC(=O)[C@@H]2CCCN2C(=O)[C@H](CCCNC(=N)N)NC(=O)[C@H](Cc2ccccc2)NC(=O)[C@H](C(C)C)NC(=O)[C@H](CCCNC(=N)N)NC(=O)CNC(=O)[C@H](CC(C)C)NC1=O, also called Phe^13) [SEQ. ID. NO. 27]
RESULT VALUE: 12

(1) RCMLGRVXRPC ((2)Nal^13 ((2')naphthylalanine)) [SEQ. ID. NO. 28]
(2) Ac-RCMLG[Nle]VYRPC-NH2 (disulfide 2-11 (inferred), also called Nle^11) [SEQ. ID. NO. 26]
(3) RCALXXVYRPC (D-Ala^10, Harg^11 (homoarginine), also called Ala^8, D-Ala^10, Harg^11) [SEQ. ID. NO. 38]
Sort entries by EC50 (aequorin functional assay) from minimum to maximum value. # list labels per requested ordering
1, 2, 3
